# Tested Target: MPV fusion glycoprotein with the D280N mutation (MPV-F N280) (metapneumovirus)
# Assay Summary: SPR; F protein loaded on streptavidin sensors, mAb in solution
Readout Label: Kd (nM)
Output spec: scalar in nM, unitless text.

Lookup: Tell us which Kd value is on record for MPK196 (antibody, V domains shown) VH: QVQLVESGGGLVKPGGSLRLSCAASRFKFGDYYMSWIRQAPGKGLEWVSNISPSSSYTNYADSVKGRFTISRDNANNLLYLQMNSLRAEDTAVYYCARESCSGGSCSLHGMDVWGQGTTVTVAS VL: QSVLTQPPSVSGAPGQRVTISCTGSSSNIGAGYDVHWYQQLPGTAPKLLIYDNSNRPSGVPDRFSGSKSGTSASLAITGLRAEDDADYYCQSYDRSLGGSIFGGGTKLTVL
Found: 100

Lookup: Tell us which Kd value is on record for MPK152 (antibody, V domains shown) VH: EVQLVESGGGLVKPGGSLRLSCAASGLTISGYYMIWIRQAPGKGLEWISYISGSSSYTNYADSVKGRFTISRDNGQNTLFLQMDSLRVEDTAVYFCATEETPSPGPFGLWGQGTLVTVSS VL: QSVVTQPPSVSGAPGQRVTISCTGTSSNIGAGYDVHWYQQFPGTSPKLLIFRNTNRPSGVPDRFSGSTSGSSASLAITGLQTEDEADYYCQSYDRSLDGWVFGGGTELTVL
Found: 0.069
